Molecular target: Tyrosine-protein phosphatase non-receptor type 11 (Homo sapiens, UniProt Q06124)
Sequence (Q06124 whole entry): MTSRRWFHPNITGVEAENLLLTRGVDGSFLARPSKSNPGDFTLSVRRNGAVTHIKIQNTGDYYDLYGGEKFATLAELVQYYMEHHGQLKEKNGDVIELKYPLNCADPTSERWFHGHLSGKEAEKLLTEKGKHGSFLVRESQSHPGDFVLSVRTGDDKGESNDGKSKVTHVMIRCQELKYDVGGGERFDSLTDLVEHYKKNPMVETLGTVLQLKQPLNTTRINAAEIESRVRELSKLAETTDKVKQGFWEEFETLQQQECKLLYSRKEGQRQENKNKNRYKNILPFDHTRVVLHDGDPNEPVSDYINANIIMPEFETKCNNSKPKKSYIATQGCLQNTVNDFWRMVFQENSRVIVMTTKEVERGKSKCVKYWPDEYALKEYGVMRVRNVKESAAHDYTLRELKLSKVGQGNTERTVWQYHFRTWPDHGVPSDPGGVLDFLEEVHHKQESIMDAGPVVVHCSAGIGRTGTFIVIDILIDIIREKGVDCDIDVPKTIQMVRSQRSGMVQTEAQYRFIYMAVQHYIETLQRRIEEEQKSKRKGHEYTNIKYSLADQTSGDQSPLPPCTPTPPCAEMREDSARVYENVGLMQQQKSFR
Assay: SPH2 Allosteric Inhibition Assay and Binding
pIC50: −log10 of the molar value.
attribute_measured: pIC50

Any idea what pIC50 was measured for CC1(CN)CCN(c2cnc3c(N4CCCc5c4cccc5S(=O)(=O)F)n[nH]c3n2)CC1 [US12138263, Compound 5A] ? > 6.00
